Overview of recorded MIC for various molecules
test system: Pseudomonas aeruginosa; test: Antibacterial activity against Pseudomonas aeruginosa (UI-18)

{"columns": ["molecule", "target_desc", "sign_qualifier", "MIC (µg/mL)"],
 "data": [
  ["CCn1cc(C(=O)O)c(=O)c2ccc(N3CCNCC3)cc21", "Pseudomonas aeruginosa", "=", 25],
  ["CCn1cc(C(=O)O)c(=O)c2cc(F)c(N3CCC(N4CCN(C)CC4)CC3)cc21", "Pseudomonas aeruginosa", "=", 50],
  ["CCn1cc(C(=O)O)c(=O)c2cc(F)c(N3CCSCC3)cc21", "Pseudomonas aeruginosa", "=", 0.8],
  ["CCn1cc(C(=O)O)c(=O)c2cc([N+](=O)[O-])ccc21", "Pseudomonas aeruginosa", ">", 100],
  ["CCn1cc(C(=O)O)c(=O)c2ccc(N3CCN(CC#N)CC3)cc21", "Pseudomonas aeruginosa", "=", 100],
  ["CCn1cc(C(=O)O)c(=O)c2cc(F)c(-n3cccc3)cc21 [IRLOXACIN]", "Pseudomonas aeruginosa", "=", 12.5],
  ["CCn1cc(C(=O)O)c(=O)c2cc(F)c(N3CCC(N4CCCC4)CC3)cc21", "Pseudomonas aeruginosa", "=", 3.1],
  ["CCn1cc(C(=O)O)c(=O)c2ccc(N3CCNCC3)nc21", "Pseudomonas aeruginosa", "=", 12.5],
  ["CCn1cc(C(=O)O)c(=O)c2ccc(/C=C/N3CCN(C)CC3)nc21", "Pseudomonas aeruginosa", ">", 100],
  ["CCn1cc(C(=O)O)c(=O)c2cc(F)c(N3CCNCC3)c(F)c21", "Pseudomonas aeruginosa", "=", 1.6],
  ["CCn1cc(C(=O)O)c(=O)cc1-c1ccc(OC)cc1", "Pseudomonas aeruginosa", ">", 100],
  ["CCn1cc(C(=O)O)c(=O)c2cc(F)c(NC)cc21", "Pseudomonas aeruginosa", ">", 100],
  ["CCn1cc(C(=O)O)c(=O)c2c(N)nc(N3CCCC3)nc21", "Pseudomonas aeruginosa", ">", 100],
  ["CCn1cc(C(=O)O)c(=O)cc1C", "Pseudomonas aeruginosa", ">", 100],
  ["COn1cc(C(=O)O)c(=O)c2cc3c(cc21)OCO3 [MILOXACIN]", "Pseudomonas aeruginosa", "=", 12.5],
  ["CCn1cc(C(=O)O)c(=O)c2cc(F)c(N3CCN(CCN)CC3)nc21", "Pseudomonas aeruginosa", "=", 50],
  ["CCn1cc(C(=O)O)c(=O)c2cc(F)c(N3CCN(CCN)CC3)cc21", "Pseudomonas aeruginosa", "=", 50],
  ["CCn1cc(C(=O)O)c(=O)cc1/C=C/c1ccsc1", "Pseudomonas aeruginosa", ">", 100],
  ["CCn1cc(C(=O)O)c(=O)c2cc(F)c(N3CCSCC3)nc21", "Pseudomonas aeruginosa", "=", 6.3],
  ["CCn1cc(C(=O)O)c(=O)c2c(N)nc(N3CCN(C)CC3)nc21", "Pseudomonas aeruginosa", "=", 100],
  ["CCn1cc(C(=O)O)c(=O)c2cc(F)c(N3CCN(CCCN(C)C)CC3)cc21", "Pseudomonas aeruginosa", "=", 12.5],
  ["CCn1cc(C(=O)O)c(=O)c2cc(F)c(N3CCCC3)nc21", "Pseudomonas aeruginosa", "=", 6.3],
  ["CCn1cc(C(=O)O)c(=O)c2cc(F)c(/C=N/O)nc21", "Pseudomonas aeruginosa", "=", 100]
]}
